- Test system: Escherichia coli
- assay summary: Antibacterial activity against Escherichia coli at 500 ppm after 24 hr by disk diffusion method
- Type: functional
- condition parameters: read-out: IZ
Entries and their measured zone of inhibition at 500 ppm follow.
Numeric only. Scale: mm

CC1(C)c2nnsc2C(c2ccc(F)cc2)NC1c1ccc(F)cc1 (stereo not given)	17
COc1ccc(C2NC(c3ccc(OC)cc3)C(C)(C)c3nnsc32)cc1 (stereo not given)	17
CC1(C)c2nnsc2C(c2ccccc2)NC1c1ccccc1 (stereo not given)	12
Cc1ccc(C2NC(c3ccc(C)cc3)C(C)(C)c3nnsc32)cc1 (stereo not given)	17

Consider the additional compound presented here.
Q) Give its zone of inhibition at 500 ppm value. Item: CC1(C)c2nnsc2C(c2ccc(Cl)cc2)NC1c1ccc(Cl)cc1 (stereo not given)
A) 17

----------
- Tested on: Vibrio cholerae
- assay summary: Antibacterial activity against Vibrio cholerae at 200 ppm after 24 hr by disk diffusion method
- Format: functional
- condition parameters: read-out: IZ
Entries and their measured zone of inhibition at 200 ppm follow.
Numeric only. Scale: mm

See these solved cases before continuing.
CC1(C)c2nnsc2C(c2ccc(Cl)cc2)NC1c1ccc(Cl)cc1 (stereo not given)	12
COc1ccc(C2NC(c3ccc(OC)cc3)C(C)(C)c3nnsc32)cc1 (stereo not given)	17
Cc1ccc(C2NC(c3ccc(C)cc3)C(C)(C)c3nnsc32)cc1 (stereo not given)	17
CC1(C)c2nnsc2C(c2ccccc2)NC1c1ccccc1 (stereo not given)	12

Consider the additional compound presented here.
Q) Give its zone of inhibition at 200 ppm value. Item: CC1(C)c2nnsc2C(c2ccc(F)cc2)NC1c1ccc(F)cc1 (stereo not given)
A) 17

----------
- Test system: Nannizzia gypsea
- assay summary: Antifungal activity against Microsporum gypseum at 200 ppm after 72 to 96 hr by disk diffusion method
- Type: functional
- condition parameters: read-out: IZ
Entries and their measured zone of inhibition at 200 ppm follow.

CC1(C)c2nnsc2C(c2ccc(Cl)cc2)NC1c1ccc(Cl)cc1 (stereo not given)	17 mm
COc1ccc(C2NC(c3ccc(OC)cc3)C(C)(C)c3nnsc32)cc1 (stereo not given)	17 mm
CC1(C)c2nnsc2C(c2ccccc2)NC1c1ccccc1 (stereo not given)	17 mm
Cc1ccc(C2NC(c3ccc(C)cc3)C(C)(C)c3nnsc32)cc1 (stereo not given)	22 mm

Consider the additional molecule presented here.
Q) Param readout = zone of inhibition at 200 ppm; param system = Nannizzia gypsea; param query = CC1(C)c2nnsc2C(c2ccc(F)cc2)NC1c1ccc(F)cc1 (stereo not given) ; response: value
A) 22 mm

----------
- Test system: Mucor
- assay summary: Antifungal activity against Mucor at 200 ppm after 72 to 96 hr by disk diffusion method
- Format: functional
- condition parameters: read-out: IZ
parameter: zone of inhibition at 200 ppm (mm)
Numeric only. Scale: mm

CC1(C)c2nnsc2C(c2ccccc2)NC1c1ccccc1 (stereo not given)	12

Q) Param readout = zone of inhibition at 200 ppm; param system = Mucor; param query = CC1(C)c2nnsc2C(c2ccc(Cl)cc2)NC1c1ccc(Cl)cc1 (stereo not given) ; response: value
A) 12

Q) Param readout = zone of inhibition at 200 ppm; param system = Mucor; param query = COc1ccc(C2NC(c3ccc(OC)cc3)C(C)(C)c3nnsc32)cc1 (stereo not given) ; response: value
A) 17

Q) Param readout = zone of inhibition at 200 ppm; param system = Mucor; param query = CC1(C)c2nnsc2C(c2ccc(F)cc2)NC1c1ccc(F)cc1 (stereo not given) ; response: value
A) 17

Q) Param readout = zone of inhibition at 200 ppm; param system = Mucor; param query = Cc1ccc(C2NC(c3ccc(C)cc3)C(C)(C)c3nnsc32)cc1 (stereo not given) ; response: value
A) 17
